- METHOD NOTES: Plasma clearance in patient with severe renal impairment at 200 mg, po administered as single dose
- Format: ADME, organism-based
- CONDITION DESCRIPTION: human
PROPERTY: CL/F

Input Cc1cn([C@@H]2C[C@@H](O)[C@H](CO)O2)c(=O)[nH]c1=O , output reported CL/F.
118 mL/min

---

- METHOD NOTES: Plasma clearance in patient with mild renal impairment at 600 mg, po administered as single dose
- Assay type: ADME, organism-based
- CONDITION DESCRIPTION: human
PROPERTY: CL/F (mL/min)
Answers are plain numbers, in mL/min.

Respond only with CL/F recorded for Cc1cn([C@@H]2C[C@@H](O)[C@H](CO)O2)c(=O)[nH]c1=O [TELBIVUDINE]
345

Reference source: ChEMBL document CHEMBL1153546
